Values from patent US20230374132A1

For each entry below, report its kon value.
molecular target: T1, human CD3 E&D complex protein (Sino Biological Inc., CT026H0323H) (human, UniProt P07766 23-126; P04234 22-105); assay: BLI, antibody on sensor
T1 construct: bought heterodimer; also called human CD3 protein (CT026H0323H)
T1 sequence (P07766 23-126, chain 1 of 2): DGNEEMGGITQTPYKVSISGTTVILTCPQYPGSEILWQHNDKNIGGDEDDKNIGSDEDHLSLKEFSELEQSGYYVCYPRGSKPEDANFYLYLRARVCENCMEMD
T1 sequence (P04234 22-105, chain 2 of 2): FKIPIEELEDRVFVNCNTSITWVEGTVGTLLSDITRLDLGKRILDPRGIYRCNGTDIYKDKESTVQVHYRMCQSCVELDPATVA
Dear colleague, please return just the value in M⁻¹ s⁻¹, with no unit written.

For hzsp34.82 (antibody, human IgG1, lambda, L234A L235A, V domains shown, CDR mutant of hzsp34.24; IgG1 L234A L235A, lambda) VH: EVQLVESGGGLVQPGGSLKLSCAASGFTFNTYAMNWVRQASGKGLEWVGRIRLKYNNYATYYADSVKDRFTISRDDSKSTLYLQMNSLKTEDTAVYYCARHGNFGQSYVSWFAYWGQGTTVTVSS VL: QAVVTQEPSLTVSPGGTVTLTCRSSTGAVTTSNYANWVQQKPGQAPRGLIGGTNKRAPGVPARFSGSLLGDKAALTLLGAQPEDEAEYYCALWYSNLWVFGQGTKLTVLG the binder record lists kon as 163000

For hzsp34.88 (antibody, human IgG1, lambda, L234A L235A, V domains shown, CDR mutant of hzsp34.24; IgG1 L234A L235A, lambda) VH: EVQLVESGGGLVQPGGSLKLSCAASGFTFNTYAMNWVRQASGKGLEWVGRIRSKYNNYATYYADSVKDRFTISRDDSKSTLYLQMNSLKTEDTAVYYCARHGGFGQSYVSWFAYWGQGTTVTVSS VL: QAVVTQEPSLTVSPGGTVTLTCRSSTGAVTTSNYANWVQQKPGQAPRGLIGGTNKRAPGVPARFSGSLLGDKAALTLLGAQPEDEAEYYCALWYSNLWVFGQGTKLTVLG the binder record lists kon as 175000

For hzsp34.80 (antibody, human IgG1, lambda, L234A L235A, V domains shown, CDR mutant of hzsp34.24; IgG1 L234A L235A, lambda) VH: EVQLVESGGGLVQPGGSLKLSCAASGFTFNTAAMNWVRQASGKGLEWVGRIRSKYNNYATYYADSVKDRFTISRDDSKSTLYLQMNSLKTEDTAVYYCARHGNFGQSYVSWFAYWGQGTTVTVSS VL: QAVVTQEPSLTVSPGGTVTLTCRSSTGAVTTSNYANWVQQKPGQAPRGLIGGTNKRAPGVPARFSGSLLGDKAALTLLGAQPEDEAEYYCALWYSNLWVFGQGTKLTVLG the binder record lists kon as 225000
